target: GLP-1 Receptor (Homo sapiens, UniProt P43220); test: GLP-1R agonist cAMP stimulation assay (HEK293/GLP1R/CRE-LUC cells, Cisbio cAMP dynamic 2 kit); type: cell-based; conditions: Table 3, HEK293/GLP1R/CRE-LUC cells, 30 min
Sequence (P43220 24-463, species assumed): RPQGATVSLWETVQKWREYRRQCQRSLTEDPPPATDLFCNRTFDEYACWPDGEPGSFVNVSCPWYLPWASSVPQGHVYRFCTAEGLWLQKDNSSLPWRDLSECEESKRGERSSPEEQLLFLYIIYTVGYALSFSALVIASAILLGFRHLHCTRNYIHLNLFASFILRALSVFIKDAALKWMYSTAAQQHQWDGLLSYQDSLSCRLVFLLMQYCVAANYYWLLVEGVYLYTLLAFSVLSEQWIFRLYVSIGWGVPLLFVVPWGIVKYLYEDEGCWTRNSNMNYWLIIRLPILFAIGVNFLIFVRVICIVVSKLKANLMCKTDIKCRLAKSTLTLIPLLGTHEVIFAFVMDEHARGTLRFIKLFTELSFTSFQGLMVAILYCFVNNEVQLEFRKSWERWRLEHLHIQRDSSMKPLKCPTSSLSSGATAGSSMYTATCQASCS
metricName: EC50 (nM)

Below: 5 molecules and their reported EC50.
molecule: Cc1cc(-n2ccn(-c3c4c(nn3-c3cc(C)c(F)c(C)c3)CCN(C(=O)c3cc5cc(C6CCOCC6)ccc5n3[C@@]3(c5noc(=O)[nH]5)C[C@@H]3C)[C@H]4C)c2=O)ccc1S(C)(=N)=O (stereo partly drawn)
EC50 / nM: 0.01
--
molecule: CC1=Cc2c(ccc(-n3ccn(-c4c5c(nn4-c4cc(C)c(F)c(C)c4)CCN(C(=O)c4cc6cc([C@H]7CCOC(C)(C)C7)ccc6n4[C@@]4(c6noc(=O)[nH]6)C[C@@H]4C)[C@H]5C)c3=O)c2F)S(=O)(C2CC2)=N1 (single isomer, unassigned) [Compound 210]
EC50 / nM: 0.067
--
molecule: Cc1cc(-n2nc3c(c2-n2ccn(-c4ccc(S(=N)(=O)C5CCC5)cc4F)c2=O)[C@H](C)N(C(=O)c2cc4cc([C@H]5CCOC(C)(C)C5)ccc4n2[C@@]2(c4noc(=O)[nH]4)C[C@@H]2C)CC3)cc(C)c1F (single isomer, unassigned)
EC50 / nM: 0.001
--
molecule: CCS(=O)(=NC)c1ccc(-n2ccn(-c3c4c(nn3-c3cc(C)c(F)c(C)c3)CCN(C(=O)c3cc5cc(C6CCOCC6)ccc5n3[C@@]3(c5noc(=O)[nH]5)C[C@@H]3C)[C@H]4C)c2=O)c(Cl)c1 (single isomer, unassigned)
EC50 / nM: 0.072
--
molecule: Cc1cc(-n2ccn(-c3c4c(nn3-c3cc(C)c(F)c(C)c3)CCN(C(=O)c3cc5cc([C@H]6CCOC(C)(C)C6)ccc5n3[C@@]3(c5noc(=O)[nH]5)C[C@@H]3C)[C@H]4C)c2=O)c(F)cc1S(=N)(=O)C1CC1 (single isomer, unassigned) [Compound 190]
EC50 / nM: 0.026

[P] CN=S(=O)(c1ccc(-n2ccn(-c3c4c(nn3-c3cc(C)c(F)c(C)c3)CCN(C(=O)c3cc5cc([C@H]6CCOC(C)(C)C6)ccc5n3[C@@]3(c5noc(=O)[nH]5)C[C@@H]3C)[C@H]4C)c2=O)c(F)c1C)C1CC1 (single isomer, unassigned) [Compound 195]
[Q] Cc1cc(-n2nc3c(c2-n2ccn(-c4ccc(S(=N)(=O)C5CC5)cc4)c2=O)[C@H](C)N(C(=O)c2cc4cc(C5CCOCC5)ccc4n2[C@@]2(c4noc(=O)[nH]4)C[C@@H]2C)CC3)cc(C)c1F (single isomer, unassigned) [Compound 134]
[R] CN=S(=O)(c1ccc(-n2ccn(-c3c4c(nn3-c3cc(C)c(F)c(C)c3)CCN(C(=O)c3cc5cc([C@H]6CCOC(C)(C)C6)ccc5n3[C@@]3(c5noc(=O)[nH]5)C[C@@H]3C)[C@H]4C)c2=O)c(F)c1Cl)C1CC1 (single isomer, unassigned) [Compound 214]
[S] CN=S(=O)(c1ccc(-n2ccn(-c3c4c(nn3-c3cc(C)c(F)c(C)c3)CCN(C(=O)c3cc5cc([C@H]6CCOC(C)(C)C6)ccc5n3[C@@]3(c5noc(=O)[nH]5)C[C@@H]3C)[C@H]4C)c2=O)c(F)c1C(C)C)C1CC1 (single isomer, unassigned) [Compound 220]
**Query** Rank the items in ascending order with respect to EC50. Please respond with the labels ordered as the question requires.
**Result** Q, P, R, S
(Q: 0.0051 nM, P: 0.018 nM, R: 0.033 nM, S: 0.134 nM)

[1] Cc1cc(-n2nc3c(c2-n2ccn(-c4ccc5c(c4)CCS(C)(=O)=N5)c2=O)[C@H](C)N(C(=O)c2cc4cc([C@H]5CCOC(C)(C)C5)ccc4n2[C@@]2(c4noc(=O)[nH]4)C[C@@H]2C)CC3)cc(C)c1F (single isomer, unassigned) [Compound 228]
[2] Cc1cc(-n2nc3c(c2-n2ccn(-c4ccc5c(c4)CCS5(=N)=O)c2=O)[C@H](C)N(C(=O)c2cc4cc(C5CCOCC5)ccc4n2[C@@]2(c4noc(=O)[nH]4)C[C@@H]2C)CC3)cc(C)c1F (stereo partly drawn)
**Query** Min EC50? 1 | 2 Bench note: the answer is the label of the chosen record.
**Result** 2

[I] Cc1cc(-n2nc3c(c2-n2ccn(-c4ccc(OC5CCS(=N)(=O)CC5)cc4)c2=O)[C@H](C)N(C(=O)c2cc4cc(C5CCOCC5)ccc4n2[C@@]2(c4noc(=O)[nH]4)C[C@@H]2C)CC3)cc(C)c1F (stereo partly drawn)
[II] Cc1nnc(Cn2c(C(=O)N3CCc4nn(-c5cc(C)c(F)c(C)c5)c(-n5ccn(-c6ccc(S7(=O)=NCCC7)cc6)c5=O)c4[C@@H]3C)cc3cc(C4CCOCC4)ncc32)o1 (single isomer, unassigned)
[III] Cc1cc(-n2nc3c(c2-n2ccn(-c4ccc(S(=N)(=O)C5CCC5)cc4F)c2=O)[C@H](C)N(C(=O)c2cc4cc(C5CCOCC5)ccc4n2[C@@]2(c4noc(=O)[nH]4)C[C@@H]2C)CC3)cc(C)c1F (single isomer, unassigned) [Compound 169]
[IV] CNc1cc(-n2ccn(-c3c4c(nn3-c3cc(C)c(F)c(C)c3)CCN(C(=O)c3cc5cc(C6CCOCC6)ccc5n3[C@@]3(c5nc(=O)o[nH]5)C[C@@H]3C)[C@H]4C)c2=O)ccc1S(C)(=N)=O (stereo partly drawn)
**Query** Please give the order of these molecules when sorted by EC50, largest value leading. List the labels, following the order given in the request.
**Result** II, III, I, IV

====

target: UniProt P43220; experiment: GLP-1R agonist cAMP stimulation assay (HEK293/GLP1R/CRE-LUC cells, Cisbio cAMP dynamic 2 kit); type: cell-based; settings: Table 4
pEC50: −log10 of the molar value.
metricName: pEC50

compound: CN=S(=O)(c1ccc(-n2ccn(-c3c4c(nn3-c3cc(C)c(F)c(C)c3)CCN(C(=O)c3cc5cc([C@H]6CCOC(C)(C)C6)ccc5n3[C@@]3(c5noc(=O)[nH]5)C[C@@H]3C)[C@H]4C)c2=O)c(F)c1Cl)C1CC1 (single isomer, unassigned)
metricName: pEC50
observedResult: 10.48

[P] Cc1cc(-n2nc3c(c2-n2ccn(-c4ccc(S(=N)(=O)C5CCC5)cc4F)c2=O)[C@H](C)N(C(=O)c2cc4cc(C5CCOCC5)ccc4n2[C@@]2(c4noc(=O)[nH]4)C[C@@H]2C)CC3)cc(C)c1F (single isomer, unassigned)
[Q] CCS(=O)(=NC)c1ccc(-n2ccn(-c3c4c(nn3-c3cc(C)c(F)c(C)c3)CCN(C(=O)c3cc5cc(C6CCOCC6)ccc5n3[C@@]3(c5noc(=O)[nH]5)C[C@@H]3C)[C@H]4C)c2=O)c(Cl)c1 (single isomer, unassigned)
**Query** When P and Q are compared, which has the higher number for pEC50? Use the label to indicate which entry you chose.
**Result** P
(P: 10.96, Q: 10.14)

====

biological target: UniProt P43220; assay: GLP-1R agonist cAMP stimulation assay (HEK293/GLP1R/CRE-LUC cells, Cisbio cAMP dynamic 2 kit); type: cell-based; conditions: Table 4
pEC50: −log10 of the molar value.
metricName: pEC50

compound: Cc1cc(-n2nc3c(c2-n2ccn(-c4ccc(S(=N)(=O)C5CC5)cc4F)c2=O)[C@H](C)N(C(=O)c2cc4cc([C@H]5CCOC(C)(C)C5)ccc4n2[C@@]2(c4noc(=O)[nH]4)C[C@@H]2C)CC3)cc(C)c1F (single isomer, unassigned) [Compound 181]
system: UniProt P43220
observedResult: 10.85
//
compound: CN=S(=O)(c1ccc(-n2ccn(-c3c4c(nn3-c3cc(C)c(F)c(C)c3)CCN(C(=O)c3cc5cc([C@H]6CCOC(C)(C)C6)ccc5n3[C@@]3(c5noc(=O)[nH]5)C[C@@H]3C)[C@H]4C)c2=O)c(F)c1C)C1CC1 (single isomer, unassigned) [Compound 195]
system: UniProt P43220
observedResult: 10.74

[A] CN=S(=O)(c1ccc(-n2ccn(-c3c4c(nn3-c3cc(C)c(F)c(C)c3)CCN(C(=O)c3cc5cc([C@H]6CCOC(C)(C)C6)ccc5n3[C@@]3(c5noc(=O)[nH]5)C[C@@H]3C)[C@H]4C)c2=O)c(F)c1NC)C1CC1 (single isomer, unassigned) [Compound 238]
[B] Cc1cc(-n2nc3c(c2-n2ccn(-c4ccc5c(cnn5C)c4F)c2=O)[C@H](C)N(C(=O)c2cc4cc([C@H]5CCOC(C)(C)C5)ccn4c2C2(c4noc(=O)[nH]4)CC2)CC3)cc(C2CC2)c1F [Compound C-6, reference compound]
**Query** From the recorded data, which exceeds the other in pEC50: A or B ? Let me know the label of the one you choose.
**Result** B
